Where do the numbers come from? From ChEMBL document CHEMBL3885881.

Can you tell me TOTAL PROTEIN for the items I'm about to list?
# Species on record: Rattus norvegicus
# protocol-notes: DrugMatrix - Regimen: Daily Repeat
# Format: toxicity, organism-based, Sprague-Dawley
# Parameters: regimen Daily Repeat, gender Male, age 6-8 weeks
# particulars: in vivo, po, 0 mg/kg, 72 h, tissue Plasma, route oral GAVAGE, dose level Control, time 3 day, vehicle 100 % WATER
Give just the numeric value; G/DL need not be written.

Input line: What value of TOTAL PROTEIN has been reported for the following compound? CN(C)C(=O)Oc1cccc([N+](C)(C)C)c1.[Br-] [NEOSTIGMINE BROMIDE]
Output line: 6.08

Input line: Check CN(C)CCC=C1c2ccccc2CCc2ccccc21 too.
Output line: 6.1

Input line: Check CCN(C(C)=O)c1cccc(-c2ccnc3c(C#N)cnn23)c1 too.
Output line: 6.1

Input line: Check NC12CC3CC(CC(C3)C1)C2 too.
Output line: 6.1

Input line: Check CCCC(C)C1(CC)C(=O)NC(=O)NC1=O (stereo unspecified) too.
Output line: 6.08

Input line: Check O=c1[nH]c(=O)n(C2CCCO2)cc1F (stereo unspecified) too.
Output line: 5.85

* * *

# Species on record: Rattus norvegicus
# protocol-notes: DrugMatrix - Regimen: Daily Repeat
# Assay type: toxicity, organism-based, Sprague-Dawley
# Parameters: regimen Daily Repeat, gender Male, age 6-8 weeks
# particulars: in vivo, po, 0 mg/kg, 72 h, tissue Plasma, route oral GAVAGE, dose level Control, time 3 day, vehicle 100 % WATER
Can you tell me BLOOD UREA NITROGEN for the items I'm about to list?
Give just the numeric value; mg/dL need not be written.

Input line: What value of BLOOD UREA NITROGEN has been reported for the following molecule? CCN(C(C)=O)c1cccc(-c2ccnc3c(C#N)cnn23)c1 [ZALEPLON]
Output line: 12.67

Input line: Check NC12CC3CC(CC(C3)C1)C2 [AMANTADINE] too.
Output line: 12.67

Input line: Check CCN(CC)CCOC(=O)C1(C2CCCCC2)CCCCC1 [DICYCLOMINE] too.
Output line: 14.67

Input line: Check CN(C)C(=O)Oc1cccc([N+](C)(C)C)c1.[Br-] [NEOSTIGMINE BROMIDE] too.
Output line: 13.17

Input line: Check CN(C)CCC=C1c2ccccc2CCc2ccccc21 [AMITRIPTYLINE] too.
Output line: 12.67

Input line: Check NC(=O)c1cccnc1 [NIACINAMIDE] too.
Output line: 15.33

Input line: Check CNC1=Nc2ccc(Cl)cc2C(c2ccccc2)=[N+]([O-])C1 [CHLORDIAZEPOXIDE] too.
Output line: 14.83

Input line: Check CCCC(C)C1(CC)C(=O)NC(=O)NC1=O (centres undefined) [PENTOBARBITAL] too.
Output line: 13.17

Input line: Check CCN(CC)CCNC(=O)c1ccc(N)cc1 [PROCAINAMIDE] too.
Output line: 15.5

* * *

Can you tell me TOTAL PROTEIN for the items I'm about to list?
# Species: Rattus norvegicus
# protocol-notes: DrugMatrix - Regimen: Daily Repeat
# Assay type: toxicity, organism-based, Sprague-Dawley
# Set-up: regimen Daily Repeat, gender Male, age 6-8 weeks
# particulars: in vivo, po, 0 mg/kg, 120 h, tissue Plasma, route oral GAVAGE, dose level Control, time 5 day, vehicle 100 % WATER

Input line: What value of TOTAL PROTEIN has been reported for the following compound? CCN(C(C)=O)c1cccc(-c2ccnc3c(C#N)cnn23)c1 [ZALEPLON]
Output line: 6.07 G/DL

Input line: Check CN(C)C(=O)Oc1cccc([N+](C)(C)C)c1.[Br-] [NEOSTIGMINE BROMIDE] too.
Output line: 5.82 G/DL

Input line: Check CCN(CC)CCNC(=O)c1ccc(N)cc1 [PROCAINAMIDE] too.
Output line: 5.9 G/DL

Input line: Check CNC1=Nc2ccc(Cl)cc2C(c2ccccc2)=[N+]([O-])C1 [CHLORDIAZEPOXIDE] too.
Output line: 6.12 G/DL

Input line: Check O=c1[nH]c(=O)n(C2CCCO2)cc1F (stereo not given) [TEGAFUR] too.
Output line: 6.22 G/DL

* * *

# Species on record: Rattus norvegicus
# protocol-notes: DrugMatrix - Regimen: Daily Repeat
# Format: toxicity, organism-based, Sprague-Dawley
# Design: regimen Daily Repeat, gender Male, age 6-8 weeks
# particulars: in vivo, po, 0 mg/kg, 120 h, tissue Blood, route oral GAVAGE, dose level Control, time 5 day, vehicle .5 % CMC
Just a reminder that ties go to -1: only MONOCYTE strictly below 2% counts as 1.

Input line: Quick check: MONOCYTE of C[C@H]1[C@H](NC(=O)/C(=N\OC(C)(C)C(=O)O)c2csc(N)n2)C(=O)N1S(=O)(=O)O under 2%?
Output line: 1

Input line: Check CN1C(=O)CN=C(c2ccccc2)c2cc([N+](=O)[O-])ccc21 too.
Output line: -1

Input line: Check NC(=O)N1c2ccccc2CC(=O)c2ccccc21 [OXCARBAZEPINE] too.
Output line: 1

Input line: Check CCn1cc(C(=O)O)c(=O)c2cc(F)c(N3CCNC(C)C3)c(F)c21 (centres undefined) too.
Output line: 1

Input line: Check CCCCC1=NC2(CCCC2)C(=O)N1Cc1ccc(-c2ccccc2-c2nnn[nH]2)cc1 too.
Output line: -1

Input line: Check CCC1=C(C)CN(C(=O)NCCc2ccc(S(=O)(=O)NC(=O)N[C@H]3CC[C@H](C)CC3)cc2)C1=O [GLIMEPIRIDE] too.
Output line: 1

Input line: Check CCCNC(=O)NS(=O)(=O)c1ccc(Cl)cc1 [CHLORPROPAMIDE] too.
Output line: 1

Input line: Check COc1ccccc1[N+](=O)[O-] too.
Output line: 1

* * *

# Species on record: Rattus norvegicus
# protocol-notes: DrugMatrix - Regimen: Daily Repeat
# Type: toxicity, organism-based, Sprague-Dawley
# Set-up: regimen Daily Repeat, gender Male, age 6-8 weeks
# particulars: in vivo, po, 0 mg/kg, 72 h, tissue Plasma, route oral GAVAGE, dose level Control, time 3 day, vehicle .5 % CMC
Can you tell me POTASSIUM for the items I'm about to list?
Give just the numeric value; MEQ/L need not be written.

Input line: What value of POTASSIUM has been reported for the following compound? C#C[C@]1(O)CC[C@H]2[C@@H]3CCC4=CC(=O)CC[C@]4(C)[C@H]3CC[C@@]21C [ETHISTERONE]
Output line: 7

Input line: Check COc1cc(OC)c(C(=O)CCCN2CCCC2)c(OC)c1 [BUFLOMEDIL] too.
Output line: 6.91

Input line: Check C[C@]12CC[C@@H]3c4ccc(O)cc4CC[C@H]3[C@@H]1C[C@@H](O)[C@@H]2O [ESTRIOL] too.
Output line: 6.37

Input line: Check C[C@@H]1O[C@@H](O[C@H]2C[C@@H](O)[C@]3(CO)[C@H]4[C@H](O)C[C@]5(C)[C@@H](C6=CC(=O)OC6)CC[C@]5(O)[C@@H]4CC[C@]3(O)C2)[C@H](O)[C@H](O)[C@H]1O [OUABAIN] too.
Output line: 5.88

Input line: Check C[C@H]1[C@H](NC(=O)/C(=N\OC(C)(C)C(=O)O)c2csc(N)n2)C(=O)N1S(=O)(=O)O [AZTREONAM] too.
Output line: 6.33

Input line: Check CN(C)C(=O)C(CCN1CCC(O)(c2ccc(Cl)cc2)CC1)(c1ccccc1)c1ccccc1 [LOPERAMIDE] too.
Output line: 6.21

Input line: Check CN1C(=O)CN=C(c2ccccc2)c2cc([N+](=O)[O-])ccc21 [NIMETAZEPAM] too.
Output line: 7.03

Input line: Check COc1ccccc1[N+](=O)[O-] [2-NITROANISOLE] too.
Output line: 6.41

* * *

Can you tell me ASPARTATE AMINOTRANSFERASE for the items I'm about to list?
# Organism: Rattus norvegicus
# protocol-notes: DrugMatrix - Regimen: Daily Repeat
# Type: toxicity, organism-based, Sprague-Dawley
# Set-up: regimen Daily Repeat, gender Male, age 6-8 weeks
# particulars: in vivo, po, 0 mg/kg, 72 h, tissue Plasma, route oral GAVAGE, dose level Control, time 3 day, vehicle .5 % CMC
Give just the numeric value; u/L need not be written.

Input line: What value of ASPARTATE AMINOTRANSFERASE has been reported for the following molecule? CCn1cc(C(=O)O)c(=O)c2cc(F)c(N3CCNC(C)C3)c(F)c21 (stereo not drawn) [LOMEFLOXACIN]
Output line: 69.5

Input line: Check CCOc1nc2cccc(C(=O)O)c2n1Cc1ccc(-c2ccccc2-c2nnn[nH]2)cc1 too.
Output line: 95.17

Input line: Check C[C@H]1[C@H](NC(=O)/C(=N\OC(C)(C)C(=O)O)c2csc(N)n2)C(=O)N1S(=O)(=O)O [AZTREONAM] too.
Output line: 81.17
